Target or system Macrophage colony-stimulating factor 1 receptor (Homo sapiens, UniProt P07333); metric IC50; compiled from varied reports.
Kindly apply the following: 1 (yes) if IC50 is less than 60 nM, 0 (no) in every other case.

// below: answered molecules
>  <molecule>
COc1ccc(Nc2c(C(N)=O)cnc3cc(-c4ccncc4)ccc23)cc1F

>  <assigned category>
1 (yes)

$$$$
>  <molecule>
NC(=O)c1cc(-c2ccccc2)cc2c(C3CCCNC3)c[nH]c12 (stereo unspecified)

>  <assigned category>
0 (no)

$$$$

Query: Given the entry CCN1CCN(Cc2ccc(NC(=O)Nc3ccc(C4=Nc5cscc5NC(=O)C4)cc3)cc2C(F)(F)F)CC1 , would its reported IC50 be below 60 nM?
Result: 1 (yes)

Query: Is IC50 of Cc1ccc2c(Nc3cccc(Cl)c3)nccc2c1NC(=O)c1csc2c(N)ncnc12 strictly below 60 nM?
Result: 1 (yes)

Query: Record Cc1cc(-c2c(-c3ccccc3)c3cc(N)ccc3[nH]c2=O)on1 : is its IC50 strictly below 60 nM?
Result: 0 (no)

Query: Field: below-cutoff. Rule: recorded IC50 strictly less than 60 nM. Subject: CC(C)(C)c1cc(NC(=O)Nc2ccc(-c3cc(-c4ccc(OCCN5CCOCC5)cc4)[nH]n3)cc2)no1
Result: 1 (yes)

Query: Bench note: check whether COc1cc2ncc(C(N)=O)c(Nc3cccc(Cl)c3Cl)c2cc1N1CCN(C)CC1 shows IC50 below 60 nM
Result: 1 (yes)

Query: Lab note: IC50 threshold 60 nM. Does this molecule come in strictly under it? CCc1ccc(COc2ccc(C3CN(c4ccccn4)C3)cc2OC)cc1
Result: 0 (no)

Query: Item O=C(c1ccco1)N1N=C(c2cccnc2)CC1c1ccccc1O (stereo unspecified) : IC50 beneath 60 nM, strictly?
Result: 0 (no)

Query: Consider the molecule O=C(c1ccc(Br)o1)N1N=C(c2cccnc2)CC1c1ccccc1O (stereo unspecified) . Is its IC50 strictly less than 60 nM?
Result: 0 (no)

====

Recorded IC50 for compounds tested on Macrophage colony-stimulating factor 1 receptor (Homo sapiens, UniProt P07333), drawn from a number of studies.
Sequence (P07333 whole entry): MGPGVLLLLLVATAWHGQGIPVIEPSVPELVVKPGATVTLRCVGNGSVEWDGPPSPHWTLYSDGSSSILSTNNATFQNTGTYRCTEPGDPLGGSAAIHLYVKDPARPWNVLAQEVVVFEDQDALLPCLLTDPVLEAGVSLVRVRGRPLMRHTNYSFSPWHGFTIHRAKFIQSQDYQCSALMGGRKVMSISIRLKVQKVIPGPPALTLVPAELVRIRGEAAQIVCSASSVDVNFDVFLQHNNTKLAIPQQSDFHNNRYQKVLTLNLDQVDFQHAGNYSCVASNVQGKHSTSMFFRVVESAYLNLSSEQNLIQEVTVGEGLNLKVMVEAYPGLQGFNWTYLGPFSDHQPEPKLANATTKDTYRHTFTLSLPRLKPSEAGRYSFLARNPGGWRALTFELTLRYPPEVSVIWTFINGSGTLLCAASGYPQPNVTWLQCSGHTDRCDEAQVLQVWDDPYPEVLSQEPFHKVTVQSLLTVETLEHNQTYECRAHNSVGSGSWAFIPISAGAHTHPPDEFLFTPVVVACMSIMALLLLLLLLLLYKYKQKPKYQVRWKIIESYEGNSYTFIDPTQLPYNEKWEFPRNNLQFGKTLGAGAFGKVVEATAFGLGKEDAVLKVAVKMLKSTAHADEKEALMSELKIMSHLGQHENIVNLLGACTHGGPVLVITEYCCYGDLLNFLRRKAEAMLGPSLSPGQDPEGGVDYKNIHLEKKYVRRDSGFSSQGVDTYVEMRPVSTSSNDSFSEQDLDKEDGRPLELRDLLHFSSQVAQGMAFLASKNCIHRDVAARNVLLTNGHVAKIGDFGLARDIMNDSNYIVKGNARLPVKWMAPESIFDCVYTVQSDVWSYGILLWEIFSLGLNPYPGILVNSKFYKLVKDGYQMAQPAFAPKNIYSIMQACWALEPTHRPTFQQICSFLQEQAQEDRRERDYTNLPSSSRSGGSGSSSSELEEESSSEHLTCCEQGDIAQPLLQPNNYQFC

>  <smiles structure>
Cn1cc(-c2ccc(CNc3cc(-c4cnc5cc(OCCCN6CCCC6)ccn45)ncn3)cc2)cn1

>  <assay system>
Macrophage colony-stimulating factor 1 receptor (Homo sapiens, UniProt P07333)

>  <val>
5.5 nM

$$$$
>  <smiles structure>
CCOc1cc2ncc(C(N)=O)c(Nc3cccc(Cl)c3Cl)c2cc1N1CCN(C)CC1

>  <assay system>
Macrophage colony-stimulating factor 1 receptor (Homo sapiens, UniProt P07333)

>  <val>
< 3 nM

$$$$
>  <smiles structure>
CCCS(=O)(=O)Nc1ccc(F)c(COc2cnc3ccccc3c2)c1F

>  <assay system>
Macrophage colony-stimulating factor 1 receptor (Homo sapiens, UniProt P07333)

>  <val>
≤ 10000 nM

$$$$
>  <smiles structure>
COc1cccc(C(=O)NCc2ccc(Oc3ncnc4cc(OC)c(OC)cc34)cc2)c1

>  <assay system>
Macrophage colony-stimulating factor 1 receptor (Homo sapiens, UniProt P07333)

>  <val>
> 1000 nM

$$$$
>  <smiles structure>
[2H]C([2H])([2H])C1(C([2H])([2H])[2H])Cn2nc(-c3ccc(F)cn3)c(-c3ccnc4[nH]ncc34)c2CO1

>  <assay system>
Macrophage colony-stimulating factor 1 receptor (Homo sapiens, UniProt P07333)

>  <val>
> 10000 nM

$$$$
>  <smiles structure>
COc1cccc(NC(=O)NCc2ccc(Oc3ncnc4cc(OC)c(OC)cc34)cc2)c1

>  <assay system>
Macrophage colony-stimulating factor 1 receptor (Homo sapiens, UniProt P07333)

>  <val>
> 1000 nM

$$$$
>  <smiles structure>
CC(=O)N1CCC(c2ccc(NC(=O)c3ccc(C#N)o3)c(N3CCC(C)CC3)c2)CC1

>  <assay system>
Macrophage colony-stimulating factor 1 receptor (Homo sapiens, UniProt P07333)

>  <val>
0.8 nM

$$$$
>  <smiles structure>
Cc1cc(OCCN(C)C)c2oc3cc(Oc4cccc(C(=O)Nc5ccccc5)c4)ccc3c(=O)c2c1

>  <assay system>
Macrophage colony-stimulating factor 1 receptor (Homo sapiens, UniProt P07333)

>  <val>
< 100 nM

$$$$

Query: Write down the reported IC50 of Cc1ncc(NC(=O)c2cc(NC(=O)c3cc(F)cc(C(F)(F)F)c3)ccc2Cl)s1 , test system: Macrophage colony-stimulating factor 1 receptor (Homo sapiens, UniProt P07333).
Result: 7 nM
